ASSAY PROCEDURE: Quantitative High-Throughput drug screen in 47 multiple myeloma cell lines against the NCATS MIPE library collection: KHM11_PLB cell viability assay (AID 1918962); further: nearly all actives have a fitted effect of over 35% in size; further: potency means the concentration at half of the fitted maximal effect
MEASUREMENT CONDITIONS: KHM11 myeloma cell viability, CellTiter-Glo ATP luminescence, 48 h; series mostly up to 45.8 µM
Source text: PI: Beverly A. Mock Ph.D. Laboratory of Cancer Biology and Genetics, Center for Cancer Research, National Cancer Institute, National Institute of Health, Bethesda, Maryland […] 5; Detector; 425V; Luminescence; Viewlux PerkinElmer. […] 1. […] Briefly, the corresponding myeloma cell lines were screened in 1,536-well plates with 500 cells, 5-uL per well for inhibition of cell viability (assessed by measuring ATP levels with CellTiterGlo). […]
Records with an inconclusive call do not appear. The source made the active and inactive calls. The call rests on the fitted dose curve; in most records, active means well fitted cell-killing curve with a large enough effect; inconclusive means small, poorly fitted or top-dose-only effect, or effect the other way; inactive means no such curve, though single readings can be large or run the other way. Residues, ends and D or L forms follow the SMILES beside them. *: point of attachment. Cbz = O=C(OCc1ccccc1)*
ENDPOINT NAME: Potency

[[record]]
molecule = "CC1=C(C(=O)Nc2cc3cn[nH]c3cc2F)C(c2ccc(Cl)cc2F)N=C(c2ccnc(Cl)c2)N1 (stereo not drawn)"
endpoint_result = "inactive"

[[record]]
molecule = "Cc1ccc2nc(NCCN)c3ncc(C)n3c2c1"
endpoint_result = "2640 nM (active)"

[[record]]
molecule = "C=C(C)[C@@H]1CC[C@]2(C(=O)O)CC[C@]3(C)[C@H](CC[C@@H]4[C@@]5(C)CC[C@H](O)C(C)(C)[C@@H]5CC[C@]43C)[C@@H]12"
endpoint_result = "3720 nM (active)"

[[record]]
molecule = "Oc1ccc(-c2ccc(-c3cc(Nc4cccc(CNC5CC5)c4)n[nH]3)cc2)c(O)c1"
endpoint_result = "743 nM (active)"

[[record]]
molecule = "CC[C@H]1OC(=O)[C@H](C)[C@@H](O[C@H]2C[C@@](C)(OC)[C@@H](O)[C@H](C)O2)[C@H](C)[C@@H](O[C@@H]2O[C@@H](C)C[C@H](N(C)C)[C@@H]2O)[C@](C)(O)C[C@@H](C)C(=O)[C@H](C)[C@@H](O)[C@]1(C)O"
endpoint_result = "inactive"

[[record]]
molecule = "COc1cc(CCc2cc(NC(=O)c3ccc(N4C[C@@H](C)N[C@@H](C)C4)cc3)n[nH]2)cc(OC)c1"
endpoint_result = "9350 nM (active)"

[[record]]
molecule = "CC(C=CC(=O)NO)=C[C@@H](C)C(=O)c1ccc(N(C)C)cc1"
endpoint_result = "372 nM (active)"

[[record]]
molecule = "C[C@@H]1CC[C@@]2(OC1)OC1CC3C4CC=C5CC(O)CCC5(C)C4CCC3(C)C1[C@@H]2C (stereo partly drawn)"
endpoint_result = "inactive"

[[record]]
molecule = "c1ccc(CNc2nc(NCc3ccccc3)c3ccccc3n2)cc1"
endpoint_result = "8330 nM (active)"

[[record]]
molecule = "O=C(C=CC#Cc1cccc(NS(=O)(=O)c2ccccc2)c1)NO"
endpoint_result = "2350 nM (active)"

[[record]]
molecule = "CCCNS(=O)(=O)Nc1ncnc(OCCOc2ncc(Br)cn2)c1-c1ccc(Br)cc1"
endpoint_result = "inactive"

[[record]]
molecule = "C=C1C(=O)O[C@H]2[C@@H]1CCC(C)=CCC[C@@]1(C)O[C@@H]21"
endpoint_result = "10500 nM (active)"

[[record]]
molecule = "CC(C)C[C@@H](C=O)NC(=O)[C@H](CC(C)C)NC(=O)[C@H](CC(C)C)NC(=O)OCc1ccccc1 (Cbz-Leu-Leu-Leu-aldehyde)"
endpoint_result = "187 nM (active)"

[[record]]
molecule = "CCc1c(O)cc(O)c(C(=O)c2ccc(OCCN3CCOCC3)c(OC)c2)c1CC(=O)N(CCOC)CCOC"
endpoint_result = "469 nM (active)"

[[record]]
molecule = "C[C@H](NCc1ccc(OCc2cccc(F)c2)cc1)C(N)=O"
endpoint_result = "1480 nM (active)"

[[record]]
molecule = "O=C(NNC(=O)c1ccc(CNS(=O)(=O)c2ccc(F)c(Cl)c2)cc1)c1ccccc1"
endpoint_result = "inactive"

[[record]]
molecule = "COc1cc(O)c2c(c1)C1OC1C[C@H](O)[C@H](O)C(=O)C=CC[C@H](C)OC2=O (stereo partly drawn)"
endpoint_result = "296 nM (active)"

[[record]]
molecule = "CC(C(C)N1CC(=O)NC(=O)C1)N1CC(=O)NC(=O)C1 (stereo not drawn)"
endpoint_result = "inactive"

